Assay: Cytotoxicity against human BJ cells assessed as cell viability at 30 uM after 72 hrs by fluorescence assay relative to control
Settings: BJ cells
Entries annotated with measured viability at 72 h, 30 µM
Please reply with the bare figure in % and do not write the unit itself.

{"compound": "CCOC(=O)c1ccc(Nc2nc(N[C@H](CC)CO)nc3c2ncn3C(C)C)cc1", "testResult": 70.1}
{"compound": "CC(C)n1cnc2c(NCc3ccccc3)nc(N(CCO)CCO)nc21", "testResult": 133}

// lookup viability at 72 h, 30 µM for CC[C@H](CO)Nc1nc(NC(CO)c2ccccc2)c2ncn(C(C)C)c2n1 (stereo not given in full)
102

// lookup viability at 72 h, 30 µM for COc1cccc(CNc2nc(N[C@@H]3CCCC[C@H]3N)nc3c2ncn3C(C)C)c1O
87.4

// lookup viability at 72 h, 30 µM for CC(C)n1cnc2c(NCc3ccccc3)nc(N)nc21
72.2

// lookup viability at 72 h, 30 µM for CC(C)n1cnc2c(NCc3ccccc3)nc(NCCCN)nc21
100

// lookup viability at 72 h, 30 µM for COc1cccc(CNc2nc(N[C@H]3CC[C@H](N)CC3)nc3c2ncn3C(C)C)c1O
87.9

// lookup viability at 72 h, 30 µM for CC(C)n1cnc2c(NCc3ccccc3O)nc(NCc3ccccc3O)nc21
97.5

// lookup viability at 72 h, 30 µM for CC(C)n1cnc2c(NCc3ccccc3)nc(NCCCCCC#N)nc21
77.8

// lookup viability at 72 h, 30 µM for CC[C@H](CO)Nc1nc(NCc2ccc(Br)cc2)c2ncn(C(C)C)c2n1
92.3

----------
Tested on: Leishmania donovani
Test: Leshmanicidal activity against promastigote stage of Leishmania donovani MHOM/SD/1962/1S-c12d […] after 72 hrs by alamar blue staining-based fluorescence assay
Type: functional, organism-based
Entries annotated with measured pIC50
Just the number, please; pIC50 means minus log10 of the concentration in mol/L.

{"molecule": "CC[C@H](CO)Nc1nc(NCc2cccc(C)c2O)c2ncn(C(C)C)c2n1", "measureName": "pIC50", "testResult": 4.91}

// lookup pIC50 for CC[C@H](CO)Nc1nc(NCc2ccccc2O)c2ncn(C(C)C)c2n1 [OLOMOUCINE II]
4.20

// lookup pIC50 for CC[C@H](CO)Nc1nc(NCc2ccc(Br)cc2)c2ncn(C(C)C)c2n1
4.77

// lookup pIC50 for CC[C@H](CO)Nc1nc(NCc2cccc(OC)c2O)c2ncn(C(C)C)c2n1
4.02

// lookup pIC50 for CC[C@H](CO)Nc1nc(NCc2cc(C)ccc2O)c2ncn(C(C)C)c2n1
5.66

----------
Tested on: Leishmania
Conditions: at 30 µM
Description: Inhibition of Leishmania CRK3/CYC6 using histone H1/[gamma33-P]ATP as substrate at 30 uM after 30 mins relative to control
measureName: inhibition (%)
Please reply with the bare figure in % and do not write the unit itself.

Study these solved cases before continuing.
{"molecule": "CC(C)n1cnc2c(NCc3ccccc3O)nc(N[C@H]3CC[C@H](N)CC3)nc21", "inhibition (%)": 12.2}
{"molecule": "CC(C)n1cnc2c(NCc3ccc(O)cc3)nc(NCCCO)nc21", "inhibition (%)": 53.3}

// lookup inhibition for CC[C@H](CO)Nc1nc(NCc2ccccc2)c2ncn(C(C)C)c2n1 [SELICICLIB]
38.6

// lookup inhibition for CC[C@H](CO)Nc1nc(NCc2cccc(OC)c2O)c2ncn(C(C)C)c2n1
2

// lookup inhibition for CC[C@H](CO)Nc1nc(NCc2cc(O)cc(O)c2)c2ncn(C(C)C)c2n1
15.9

----------
Assay: Cytotoxicity against human BJ cells assessed as cell viability at 30 uM after 72 hrs by fluorescence assay relative to control
Settings: BJ cells
measureName: viability at 72 h, 30 µM (%)
Please reply with the bare figure in % and do not write the unit itself.

Study these solved cases before continuing.
{"givenSmiles": "CC[C@H](CO)Nc1nc(NCc2cc(OC)c(O)c(OC)c2)c2ncn(C(C)C)c2n1", "viability at 72 h, 30 µM, %": 103}
{"givenSmiles": "CC[C@H](CO)Nc1nc(NCc2cccc(O)c2)c2ncn(C(C)C)c2n1", "viability at 72 h, 30 µM, %": 85.6}
{"givenSmiles": "CC(C)n1cnc2c(NCc3ccccc3)nc(NC[C@H](O)CN)nc21", "viability at 72 h, 30 µM, %": 74.5}
{"givenSmiles": "CC(C)n1cnc2c(NCc3cccc(O)c3)nc(NCCCO)nc21", "viability at 72 h, 30 µM, %": 74.6}

// lookup viability at 72 h, 30 µM for CC[C@H](CO)Nc1nc(NCc2cc(C)ccc2O)c2ncn(C(C)C)c2n1
70.4

// lookup viability at 72 h, 30 µM for CC[C@H](CO)Nc1nc(NCc2ccccc2O)c2ncn(C(C)C)c2n1
79.8

// lookup viability at 72 h, 30 µM for CC[C@H](CO)Nc1nc(Nc2ccc(S(=O)(=O)Nc3nc(C)cc(C)n3)cc2)c2ncn(C(C)C)c2n1
105

----------
Assay: Cytotoxicity against human BJ cells assessed as cell viability at 30 uM after 72 hrs by fluorescence assay relative to control
Details: bj
measureName: viability at 72 h, 30 µM (%)
Please reply with the bare figure in % and do not write the unit itself.

// lookup viability at 72 h, 30 µM for CC(C)n1cnc2c(NCc3ccccc3)nc(NCCCO)nc21 [BOHEMINE]
120

----------
Test system: Leishmania
Conditions: at 30 µM
// False strictly below 60% in inhibition; True otherwise

Solved cases below.
{"givenSmiles": "CC[C@H](CO)Nc1nc(NCc2cccc(O)c2O)c2ncn(C(C)C)c2n1", "answerLabel": "False"}
{"givenSmiles": "COc1cccc(CNc2nc(N[C@@H]3CCCC[C@H]3N)nc3c2ncn3C(C)C)c1O", "answerLabel": "False"}
{"givenSmiles": "CC(C)n1cnc2c(NCc3cccc(O)c3)nc(NCCCO)nc21", "answerLabel": "True"}
{"givenSmiles": "CCOC(=O)c1ccc(Nc2nc(N[C@H](CC)CO)nc3c2ncn3C(C)C)cc1", "answerLabel": "False"}
{"givenSmiles": "CC(C)n1cnc2c(NCc3ccccc3)nc(NCCOCCO)nc21", "answerLabel": "False"}

Okay, now this compound:
Please tell me: is the compound CC(C)n1cnc2c(NCc3ccccc3)nc(NCCCN)nc21 at or over 60% in terms of inhibition?
False

----------
Tested on: Leishmania
Details: at 30 µM
// 0 strictly below 40% in inhibition; 1 otherwise

Solved cases below.
{"givenSmiles": "CC(C)n1cnc2c(NCc3ccccc3)nc(NC[C@H](O)CN)nc21", "answerLabel": 1}
{"givenSmiles": "CC(C)n1cnc2c(NCc3ccccc3O)nc(NCc3ccccc3O)nc21", "answerLabel": 0}
{"givenSmiles": "CC(C)n1cnc2c(NCc3ccccc3)nc(NCCN)nc21", "answerLabel": 1}
{"givenSmiles": "CC[C@H](CO)Nc1nc(NCc2cccc(O)c2)c2ncn(C(C)C)c2n1", "answerLabel": 0}
{"givenSmiles": "CC(C)n1cnc2c(NCc3ccccc3)nc(NCCO)nc21", "answerLabel": 1}

Please tell me: is the molecule COc1cccc(CNc2nc(N[C@H]3CC[C@H](N)CC3)nc3c2ncn3C(C)C)c1O at or over 40% in terms of inhibition?
0

----------
Experiment: Cytotoxicity against human BJ cells assessed as cell viability at 30 uM after 72 hrs by fluorescence assay relative to control
Settings: BJ cells
Entries annotated with measured viability at 72 h, 30 µM
Please reply with the bare figure in % and do not write the unit itself.

{"givenSmiles": "CC[C@H](CO)Nc1nc(NCc2cc(O)cc(O)c2)c2ncn(C(C)C)c2n1", "valueUnit": "%", "viability at 72 h, 30 µM": 83.9}
{"givenSmiles": "CC[C@H](CO)Nc1nc(NCc2ccc(O)cc2)c2ncn(C(C)C)c2n1", "valueUnit": "%", "viability at 72 h, 30 µM": 91.6}
{"givenSmiles": "CC(C)n1cnc2c(NCc3ccccc3O)nc(NCCCO)nc21", "valueUnit": "%", "viability at 72 h, 30 µM": 85}

// lookup viability at 72 h, 30 µM for CC[C@H](CO)Nc1nc(Nc2ccc(S(N)(=O)=O)cc2)c2ncn(C(C)C)c2n1
76.7

// lookup viability at 72 h, 30 µM for CC[C@H](CO)Nc1nc(NCc2cccc(O)c2O)c2ncn(C(C)C)c2n1
80.1

// lookup viability at 72 h, 30 µM for CC[C@H](CO)Nc1nc(NCc2cccc(OC)c2O)c2ncn(C(C)C)c2n1
89

// lookup viability at 72 h, 30 µM for CC(C)n1cnc2c(NCc3ccccc3O)nc(N3CCNCC3)nc21
127

----------
System: Leishmania
Conditions: at 30 µM
Dear colleague, classification is by inhibition, with ranges listed here: low: < 2%; moderate: ≥ 2% and < 50%; high: ≥ 50%

{"givenSmiles": "CC[C@H](CO)Nc1nc(NCc2cc(O)ccc2O)c2ncn(C(C)C)c2n1", "assayTarget": "Leishmania", "answerLabel": "low"}
{"givenSmiles": "CC(C)n1cnc2c(NCc3ccccc3O)nc(N3CCNCC3)nc21", "assayTarget": "Leishmania", "answerLabel": "high"}
{"givenSmiles": "CC[C@H](CO)Nc1nc(NCc2cccc(C)c2O)c2ncn(C(C)C)c2n1", "assayTarget": "Leishmania", "answerLabel": "moderate"}
{"givenSmiles": "CC[C@H](CO)Nc1nc(NCc2cc(C)ccc2O)c2ncn(C(C)C)c2n1", "assayTarget": "Leishmania", "answerLabel": "low"}
{"givenSmiles": "CC(C)n1cnc2c(NCc3ccccc3O)nc(N[C@@H]3CCCC[C@H]3N)nc21", "assayTarget": "Leishmania", "answerLabel": "moderate"}

Hello team, could you let me know which band the following molecule falls into: CC[C@H](CO)Nc1nc(NCc2ccc(Br)cc2)c2ncn(C(C)C)c2n1
moderate

Hello team, could you let me know which band the following molecule falls into: CC[C@H](CO)Nc1nc(Nc2ccc(S(=O)(=O)NC(=N)N)cc2)c2ncn(C(C)C)c2n1
low

Hello team, could you let me know which band the following molecule falls into: CC(C)n1cnc2c(NCc3ccccc3)nc(N)nc21
high
